target-system: UniProt:Q9Y5X4
Sequence (Q9Y5X4 whole entry): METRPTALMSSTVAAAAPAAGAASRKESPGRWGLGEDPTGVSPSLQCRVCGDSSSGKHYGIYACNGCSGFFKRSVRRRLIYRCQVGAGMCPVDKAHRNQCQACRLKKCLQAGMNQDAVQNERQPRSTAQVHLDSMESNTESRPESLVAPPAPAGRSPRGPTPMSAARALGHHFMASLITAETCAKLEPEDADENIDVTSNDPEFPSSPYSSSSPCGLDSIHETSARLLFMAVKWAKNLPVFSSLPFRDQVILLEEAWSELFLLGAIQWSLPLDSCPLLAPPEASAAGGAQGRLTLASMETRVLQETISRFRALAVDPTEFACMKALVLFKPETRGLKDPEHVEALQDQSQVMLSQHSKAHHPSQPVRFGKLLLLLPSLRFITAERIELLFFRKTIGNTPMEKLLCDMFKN
assay-procedure: ligands suppressing NR2E3 nuclear receptor activity – biochemical, TR-FRET, dose response (AID 463256)
measured-parameter: IC50 (µM)
Number in µM, nothing else.

I looked up `COc1ccc(-n2cc(O)c(-c3nc(-c4ccccc4)cs3)c2N)cc1` and its IC50 for UniProt:Q9Y5X4 was 13.4

Where these numbers come from: BindingDB's records for doi:10.7270/Q2BK19S0
